# assayed target: human Peroxisome Proliferator-activated Receptor alpha (PPARa), PPARA (gene 5465)
# assay comment: NVS_NR_hPPARa: NovaScreen (NVS) Nuclear Receptor Binding Assay for human Peroxisome Proliferator-activated Receptor alpha (PPARa) (AID 2283359);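 further: activity means loss of TR-FRET signal versus DMSO baseline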
Results filed as inconclusive are left out. Active and inactive are the calls of the source. How the source made its calls: active means hit-call score of the fitted dose curve at least 0.9, where 1 is the maximum; inconclusive means response in the unintended direction; inactive means score below 0.9.
Please state which outcome applies, choosing from active, inactive

Example entries and their recorded answers appear below.
compound	assayed target	assigned class
CCCCCCCC(=O)O	human Peroxisome Proliferator-activated Receptor alpha (PPARa), PPARA (gene 5465)	active
CCOC(=O)CC(O)(CC(=O)OCC)C(=O)OCC	human Peroxisome Proliferator-activated Receptor alpha (PPARa), PPARA (gene 5465)	inactive
CC1=C(/C=C/C(C)=C/C=C/C(C)=C/C(=O)O)C(C)(C)CCC1	human Peroxisome Proliferator-activated Receptor alpha (PPARa), PPARA (gene 5465)	inactive
CCCOC(=O)c1ccc(O)cc1	human Peroxisome Proliferator-activated Receptor alpha (PPARa), PPARA (gene 5465)	inactive
Cc1cc(C)c(O)c(C)c1	human Peroxisome Proliferator-activated Receptor alpha (PPARa), PPARA (gene 5465)	inactive
CC(C)(C)c1ccc(O)c(C(C)(C)C)c1	human Peroxisome Proliferator-activated Receptor alpha (PPARa), PPARA (gene 5465)	inactive

Asked: # lookup: test call for OC1CCC(C2CCCCC2)CC1 (configuration not stated)
Given back: inactive

====

# Read-out: Protein phosphatase 2A (PPP2R4), PTPA (gene 5524)
# assay comment: LTEA_HepaRG_PPP2R4: Life Technologies and Expression Analysis (LTEA) Assay for Protein phosphatase 2A (PPP2R4) using HepaRG (AID 2283522)
# measurement setup: mRNA level, 48 h; actives raise or lower the signal
The source made the active and inactive calls. The calls were made as follows: active = hit-call score of the fitted dose curve at least 0.9, where 1 is the maximum; inactive = score below 0.9.
metric name: AC50

Check out these entries, answers already filled in.
compound smiles	metric name	value reported
CCCCCCCCCCCCN1CCCC1=O	AC50	inactive
CCCCOCCO	AC50	inactive
CC(C)(C)c1ccc(O)c(C(C)(C)C)c1	AC50	inactive
C[C@@H]1C[C@H]2[C@@H]3CCC4=CC(=O)C=C[C@]4(C)[C@@]3(F)[C@@H](O)C[C@]2(C)[C@@]1(O)C(=O)COP(=O)(O)O	AC50	inactive
CC(C)CCCCCCOC(=O)CCCCC(=O)OCCCCCCC(C)C	AC50	inactive

Okay, next one:
Asked: Field request: AC50 | item: C=C(C)C(=O)OCCC(F)(F)C(F)(F)C(F)(F)C(F)(F)C(F)(F)C(F)(F)F
Given back: inactive

====

# assay comment: ATG_DR4_LXR_CIS: Attagene CIS-FACTORIAL HepG2 Assay for human Liver X Receptor (LXR), DR4 submotif (AID 2282929)
# measurement setup: HepG2 Attagene DR4 cis-reporter, mRNA transcription; actives raise or lower the signal
The source made the active and inactive calls. The calls were made as follows: active = hit-call score of the fitted dose curve at least 0.9, where 1 is the maximum; inactive = score below 0.9.
Please state which outcome applies, choosing from Y (active), N (inactive)

Example entries and their recorded answers appear below.
molecule	assigned class
NCC(F)(F)C(F)(F)C(F)(F)C(F)(F)C(F)(F)C(F)(F)C(F)(F)F	N
CC(C)(C)CC(C)(C)c1ccc(O)c(-n2nc3ccccc3n2)c1	N
CCCCCCC(=O)O	N
CN1CCN(c2ccccc2/C=C2\SCCN(c3ccc(Cl)c(Cl)c3)C2=O)CC1	N
CC(O)C(=O)O (configuration not stated)	N
CCCCCCCCC(=O)O	N
CCCCC(CC)COC(=O)CCCCC(=O)OCC(CC)CCCC (configuration not stated)	N
CCCCCCCCCCCCCCCS(=O)(=O)Oc1ccccc1	N

Asked: # lookup: test call for CC#C[C@]1(O)CC[C@H]2[C@@H]3CCC4=CC(=O)CCC4=C3[C@@H](c3ccc(N(C)C)cc3)C[C@@]21C
Given back: Y

Asked: # lookup: test call for CC(C)(C)c1cccc(C(C)(C)C)c1O
Given back: N

Asked: # lookup: test call for CCc1nn(C2CCCCC2)c2cc(C3(C#N)CCC(C(=O)O)CC3)ccc12 (configuration not stated)
Given back: Y

Asked: # lookup: test call for Oc1cc2ccccc2c2ccccc12
Given back: N

====

# Read-out: Transforming Growth Factor (TGFA), TGFA (gene 7039)
# assay comment: LTEA_HepaRG_TGFA: Life Technologies and Expression Analysis (LTEA) Assay for Transforming Growth Factor (TGFA) using HepaRG (AID 2283532)
# measurement setup: mRNA level, 48 h; actives raise or lower the signal
Activity calls are given as the source filed them. The calls were made as follows: active = hit-call score of the fitted dose curve at least 0.9, where 1 is the maximum; inactive = score below 0.9.
metric name: outcome

Check out these entries, answers already filled in.
molecule	value reported
CN(C)C=O	inactive
CC(=O)CC(C)(C)O	inactive
CCCCOCCO	inactive
OC1CCC(C2CCCCC2)CC1 (centres undefined)	inactive
CCCOC(=O)c1ccc(O)cc1	inactive

Asked: Field request: outcome | item: COC(=O)CCCCC(=O)OC
Given back: inactive

Asked: Field request: outcome | item: CCCCCCCCCCCCCCCS(=O)(=O)Oc1ccccc1
Given back: inactive

Asked: Field request: outcome | item: Oc1cc2ccccc2c2ccccc12
Given back: inactive

Asked: Field request: outcome | item: CCCCCCC(=O)O
Given back: inactive

====

# assay comment: Tanguay_ZF_120hpf_ActivityScore_legacy: (Legacy) Oregon State University Tanguay Lab 120 Hour Post-fertilization zebrafish Assay Score for Activity (AID 2283742)
Active and inactive are the calls of the source. The calls were made as follows: active = hit-call score of the fitted dose curve at least 0.9, where 1 is the maximum; inconclusive = response in the unintended direction; inactive = score below 0.9.
Please state which outcome applies, choosing from active, inactive

molecule	assigned class
CCCCOCCO	inactive
Cc1cc(C)c(O)c(C)c1	inactive
COCC(C)O (stereo not given)	inactive
O=c1c(-c2ccc(O)cc2)coc2cc(O)ccc12	inactive
CCC(=C(c1ccc(O)cc1)c1ccc(OCCN(C)C)cc1)c1ccccc1	inactive
Nc1cccc2c(N)cccc12	inactive

Asked: # lookup: test call for CC(C)(C)c1cccc(C(C)(C)C)c1O
Given back: inactive

Asked: # lookup: test call for CC1=C(/C=C/C(C)=C/C=C/C(C)=C/C(=O)O)C(C)(C)CCC1
Given back: active

Asked: # lookup: test call for OCCC(F)(F)C(F)(F)C(F)(F)C(F)(F)C(F)(F)C(F)(F)F
Given back: inactive

Asked: # lookup: test call for CCCCCCC(=O)O
Given back: inactive

Asked: # lookup: test call for CCCCCCCCCCCCCCCS(=O)(=O)Oc1ccccc1
Given back: inactive

Asked: # lookup: test call for O=C(O)c1ccccc1C(c1ccc(O)cc1)c1ccc(O)cc1
Given back: inactive

Asked: # lookup: test call for CCC(C)(C)C1CCC(O)CC1 (stereo not given)
Given back: inactive

Asked: # lookup: test call for CC[C@H](C)[C@@H](C(=O)O)n1sc2ccccc2c1=O
Given back: inactive

Asked: # lookup: test call for O=[N+]([O-])c1ccc(O)cc1
Given back: inactive

====

# assayed target: Cellular tumor antigen p53 (Homo sapiens)
# assay comment: ATG_p53_CIS: Attagene CIS-FACTORIAL HepG2 Assay for human p53 Transcription Factor (AID 2282994)
# measurement setup: HepG2 p53 cis-element reporter, Attagene mRNA; actives raise or lower the signal
Active and inactive are the calls of the source. The calls were made as follows: active = hit-call score of the fitted dose curve at least 0.9, where 1 is the maximum; inactive = score below 0.9.
Please state which outcome applies, choosing from y for active, n for inactive

molecule	assigned class
C#C[C@]1(O)CC[C@H]2[C@@H]3CCC4=CC(=O)CC[C@@H]4[C@H]3CC[C@@]21C	n

Asked: # lookup: test call for c1ccc2c(c1)ccc1ccccc12
Given back: n

Asked: # lookup: test call for COCC(C)O (configuration not stated)
Given back: n

Asked: # lookup: test call for CC(O)C(=O)O (configuration not stated)
Given back: n

Asked: # lookup: test call for NC(=O)N(O)[C@@H]1C=C[C@H](Oc2cccc(Oc3ccc(F)cc3)c2)C1
Given back: n

Asked: # lookup: test call for CCCCCCCCOC(=O)CCCCCCCCC(=O)OCCCCCCCC
Given back: n

Asked: # lookup: test call for Oc1cc2ccccc2c2ccccc12
Given back: n

Asked: # lookup: test call for CCCCC[C@H](O)CC(=O)CCc1ccc(O)c(OC)c1
Given back: n

Asked: # lookup: test call for O=C(OCCOCCOC(=O)c1ccccc1)c1ccccc1
Given back: n

====

# Read-out: Cytochrome P450 4A22 (Homo sapiens) (UniProt Q5TCH4)
# assay comment: LTEA_HepaRG_CYP4A22: Life Technologies and Expression Analysis (LTEA) Assay for Cytochrome P450 4A22 (CYP4A22) using HepaRG (AID 2283495)
# measurement setup: mRNA level, 48 h; actives raise or lower the signal
The source made the active and inactive calls. The calls were made as follows: active = hit-call score of the fitted dose curve at least 0.9, where 1 is the maximum; inactive = score below 0.9.
Please state which outcome applies, choosing from active, inactive

Asked: # lookup: test call for CC[C@H](C)[C@@H](C(=O)O)n1sc2ccccc2c1=O
Given back: inactive

Asked: # lookup: test call for CCCCCCCCOC(=O)CCCCCCCCC(=O)OCCCCCCCC
Given back: inactive

Asked: # lookup: test call for CCOC(=O)CC(O)(CC(=O)OCC)C(=O)OCC
Given back: inactive

Asked: # lookup: test call for C=C(C)C(=O)OCCC(F)(F)C(F)(F)C(F)(F)C(F)(F)C(F)(F)C(F)(F)F
Given back: inactive

Asked: # lookup: test call for CC(C)(C)CC(C)(C)c1ccc(O)c(-n2nc3ccccc3n2)c1
Given back: active

Asked: # lookup: test call for Nc1cccc2c(N)cccc12
Given back: inactive
